Hello, the source for this data is the nanobody polyreactivity screen of Harvey et al. (2022), in case you need it.

test details: yeast display, Sf9 membrane polyspecificity reagent, FACS + sequencing; frameworks hold sequencing errors
reported property: polyreactivity (PSR sort gate)

QVQLVESGGGLVQAGGSLRLSCAASGRTFLYNAMGWYRQAPGKERELVAAISWNGGSTYYADSVKGRFTISRDNAKNTVYLQMNSLKPEDTAVYYCNAVYRPRVGRRFPTGYDYWGQGTQVTVSS | high polyreactivity
QVQLVESGGGLVQAGGSLRLSCAASGLTFLDYAMGWYRQAPGKERELVAAITSGGSTNYADSVKGRFTISRDNAKNTVYLQMNSLKPEDTAVYYCATDLEVSAYDYWGQGTQVTVSS | low polyreactivity
QVQLVESGGGLVQAGGSLRLSCSASGRTFLGYAMGWYRQPPGKERELVAAISWDGTSTYYADSVKGRFTISRDNAKNNVYLQMNSLKTEDTAVYYCAAQYSYRMDYWGQGTQVTVSS | low polyreactivity
QVQLVESGGGLVQAGGSLRLSCAASGTLSRYAMGWYIQAPGKERELVAAISWTGGSTYYADSVKGRFTISRDNAKYTVYLQMNSLKPEDTAVYYCNGAWRLRGDATYGYWGQGTQVTVSS | high polyreactivity

Query: Suppose we examine the sequence QVQLVESGGGLVQAGGSLRLSCAASGSTFQPYAMGWYRPAPGKERELVAAIRYSGGITYYADSVKGRFTISRDNAKNSVYLQMNSLKPEDTAVYYCAAYGFYGGDYWGQGTQVTVSS ; what polyreactivity (PSR sort gate) value has been reported?
Response: high polyreactivity

Query: Recorded polyreactivity (PSR sort gate) of QVQLVESGGGLVQAGGSLRLSCAASGLTFVSYAMGWYRQAPGKERELVAAISYGGGSTNYADSVKGRFTISRDNAKNTVDLQMNSLKPEDTAVYYCAAEPGYYDEYGYWGQGTQVTVSS , please.
Response: low polyreactivity

Query: State the recorded polyreactivity (PSR sort gate) for this entry: QVQLVESGGGLVQAGGSLRLSCAASGYIFDDYAMGWYRQAPGKERELVAAISRGGSTYYADSVKGRFTISRDNSKNTVYLQMNSLKPEDTEVYYCAAVYRVRRITYVYWGQGTQVTVSS
Response: high polyreactivity

Query: Give the measured polyreactivity (PSR sort gate) of QVQLVESGGGLVQAGGSLRLSCAGSGRTFSTYAMGSDRQAPGKERELVAAITRRGGSTYYADSVKGRFTISRDNAKNTVYLQMNSLKPEDTAVYYCARENPGDSYYDYWGQGTQVTVSS .
Response: low polyreactivity

Query: If you can, please state the reported polyreactivity (PSR sort gate) value of QVQLVESGGGLVQAGGSLRLSCAASGYNFFSYAKGWYRQPPGKERELVAAISRGGRTYYADSVKGRFTISRDNAKNTVYLQMKILKPEDTAVYYCNAVSTPGKYGYWGQGTQVTVSS .
Response: high polyreactivity

Query: Param item = QVQLVESGGGLVQAGGSLRLSCAASGSTFDIYVMGWYRQAPGKEREFVAAITTTTGRTNYADSVKGRFTISRDNAKNTVYLQMNSLKPEDTAVYYCAAYVTWGKLWYGYWGQGTQVTVSS ; retrieve measured polyreactivity (PSR sort gate).
Response: high polyreactivity

Query: Query (sequence): QVQLVESGGGLVQAGGSLRLSCAASGLIFGYYGMGWYRQAPGKERELVAVITDDDSTTYADSVKGRFTISRDNAKNTVYLLMNSLKPEDTAVYYCNADNLLGRFDSWGQGTQVTVSS ; field requested: polyreactivity (PSR sort gate)
Response: low polyreactivity
